- target.desc: SETD2(1434-1711) (Homo sapiens, UniProt Q9BYW2)
- Construct: SETD2 (1434-1711) Assay; catalogue N/A
- Sequence (Q9BYW2 1434-1711): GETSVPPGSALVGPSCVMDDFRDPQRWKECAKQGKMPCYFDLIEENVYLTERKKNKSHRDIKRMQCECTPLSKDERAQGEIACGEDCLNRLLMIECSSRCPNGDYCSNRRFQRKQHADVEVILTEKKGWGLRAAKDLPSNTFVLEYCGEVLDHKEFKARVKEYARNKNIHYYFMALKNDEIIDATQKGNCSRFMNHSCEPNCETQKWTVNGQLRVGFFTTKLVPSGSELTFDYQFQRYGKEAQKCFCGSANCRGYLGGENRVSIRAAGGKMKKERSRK
- assay.remarks: SETD2 (1434-1711) assay
- Type: biochemical
- measurement.parameters: read-out: SETD2 (1434-1711)
Label key: Y means IC50 under 20 µM; N means IC50 of 20 µM or more.

Answered cases to consult:
compound	category
Cc1ccc(F)c2cc(C(=O)NC(C(=O)NCc3ccccc3)c3ccccn3)[nH]c12 (centres unmarked) [compound 550]	Y
Cc1cccc2cc(C(=O)NCCc3ccccc3-c3ccccc3CN)[nH]c12 [compound 635]	Y
COCC(=O)N(C)[C@@H]1CCN([C@H]2CCC[C@@H](NC(=O)c3cc4c(F)ccc(C)c4[nH]3)C2)C1 [compound 1042]	Y
Cc1ccc(F)c2cc(C(=O)Nc3cccc(-c4nnco4)c3)[nH]c12 [Cpd. No. 60]	Y
CC(=O)N1CC2CC(C1)N2c1cccc(NC(=O)c2cc3c(F)ccc(C)c3[nH]2)c1 [compound 365]	Y

Q) Is IC50 strictly under 20 µM for the entry Cc1cccc2cc(C(=O)NC3CCC(NS(=O)(=O)CCCN)CC3)[nH]c12 (centres unmarked) [compound 581] ?
A) N

Q) Is IC50 strictly under 20 µM for the entry Cc1cccc2cc(C(=O)NC3CCN(S(=O)(=O)CCCN)CC3)[nH]c12 [compound 663] ?
A) N

Q) Is IC50 strictly under 20 µM for the entry CC(=O)N1CCN(C2CCCC(NC(=O)c3cc4c(F)ccc(C)c4[nH]3)C2)CC1C (centres unmarked) [compound 967] ?
A) Y

---

- target.desc: SETD2(1434-1711) (Homo sapiens, UniProt Q9BYW2)
- Construct: SETD2 (1434-1711) Assay; catalogue N/A
- assay.remarks: SETD2 (1434-1711) assay
- Format: biochemical
- measurement.parameters: read-out: SETD2 (1434-1711)
Recorded pIC50, one value per entry.
Formally, pIC50 is defined as -log10 of the concentration c, with c in mol/L.

compound	target.desc	pIC50
Cc1ccc(F)c2cc(C(=O)Nc3cc(F)cc(N4CCC(N5CCn6ccnc6C5)C4)c3)[nH]c12 (centres unmarked) [compound 29]	SETD2(1434-1711) (Homo sapiens, UniProt Q9BYW2)	7.70
Cc1ccc(F)c2cc(C(=O)N[C@@H]3CCC[C@@H](N4CCn5cncc5C4)C3)[nH]c12 [compound 992]	SETD2(1434-1711) (Homo sapiens, UniProt Q9BYW2)	5.72
Cc1ccc(F)c2cc(C(=O)Nc3ccn(C4CCN(C)CC4)n3)[nH]c12 [compound 548]	SETD2(1434-1711) (Homo sapiens, UniProt Q9BYW2)	5.29
Cc1ccc(F)c2cc(C(=O)NC3CCCC(N4CCNCC4)C3)[nH]c12 (centres unmarked) [compound 956]	SETD2(1434-1711) (Homo sapiens, UniProt Q9BYW2)	7.00
Cc1ccc(F)c2cc(C(=O)NC3CCCC(N4CCN(C(=O)CO)C(C(F)(F)F)C4)C3)[nH]c12 (centres unmarked) [compound 1117]	SETD2(1434-1711) (Homo sapiens, UniProt Q9BYW2)	7.52
Cc1c(C#N)ccnc1C(NC(=O)c1cc2c(F)ccc(C)c2[nH]1)C1CC1 (centres unmarked) [compound 432]	SETD2(1434-1711) (Homo sapiens, UniProt Q9BYW2)	6.15

Shift focus to the following entry.
Q) If you can, please state the reported pIC50 value of Cc1ccc(F)c2cc(C(=O)N[C@@H]3CCC[C@H](N4CCn5cncc5C4)C3)[nH]c12 [compound 991] .
A) 7.22
